test system: UO-31 renal; test: NCI tumour cell line growth inhibition, 48 h
Where a SMILES comes first, the peptide text is derived from it. The star is where a group is joined. Cbz = O=C(OCc1ccccc1)*
experimental endpoint: TGI (µM)

molecule: CCCCCCc1cc2cc(C(=O)Nc3ccc(F)cc3)c(=N)oc2cc1O
test target: UO-31 renal
limit operator: =
value: 18.4
//
molecule: COc1ccc(/C=C/c2cnccn2)cc1OC
test target: UO-31 renal
limit operator: >
value: 10
//
molecule: CN(C)CCNc1nc2ccccc2c2c(=O)c3cc(F)ccc3sc12
test target: UO-31 renal
limit operator: =
value: 2.73
//
molecule: CCOC(=O)CCC(NC(=O)OCc1ccccc1)C(=O)NC(CCC(=O)OCC)C(=O)OCC (stereo not drawn) (Cbz-Glu(OEt)-Glu(OEt)-OEt; configuration not given here)
test target: UO-31 renal
limit operator: >
value: 100
//
molecule: COc1ccc2c(c1)c(-c1nc(-c3c[nH]c4ncccc34)cs1)cn2CCCCN1CCCCC1
test target: UO-31 renal
limit operator: =
value: 2.77
//
molecule: CCCCCCCCCCCCCCCCCCC1=C(O)C(=O)C=C(OC)C1=O
test target: UO-31 renal
limit operator: >
value: 100
//
molecule: Cn1nnnc1SC(F)(F)c1nc2ccccc2o1
test target: UO-31 renal
limit operator: >
value: 100
//
molecule: Cc1ccc2c(c1)CC1(Cc3cccc(C)c3C1=O)C2=O (stereo not drawn)
test target: UO-31 renal
limit operator: >
value: 100
//
molecule: C=C(C)[C@@H]1CC[C@]2(C)[C@H](CC[C@@H]3[C@@H]([C@@](C)(O)CCC=C(C)C)CC[C@]32C)[C@@]1(C)CCC(=O)O
test target: UO-31 renal
limit operator: =
value: 29.4
//
molecule: CCCC(=O)[O-].CCCC(=O)[O-].NCCN.NCCN.[Co+3].[O-][Cl+3]([O-])([O-])[O-]
test target: UO-31 renal
limit operator: >
value: 100
//
molecule: Clc1nc(Cl)c2ncn(Cc3ccccc3Cn3cnc4c(Cl)nc(Cl)nc43)c2n1
test target: UO-31 renal
limit operator: =
value: 3.85
//
molecule: CC(=O)SC(C[N+](=O)[O-])c1ccc2c(c1)OCO2 (stereo not drawn)
test target: UO-31 renal
limit operator: =
value: 11.9
//
molecule: COc1cc2c(cc1OC)C1Cc3cc(OC)c(OC)cc3N1CC2 (stereo not drawn)
test target: UO-31 renal
limit operator: =
value: 86
//
molecule: Cn1cc(S(=O)(=O)N2CCC3=Cc4c(cnn4-c4ccc(F)cc4)C[C@]3(C(=O)c3cc(C(F)(F)F)ccn3)C2)cn1
test target: UO-31 renal
limit operator: >
value: 100
//
molecule: O=C1OCC2OC(=O)c3cc(O)c(O)c(O)c3-c3c(O)c(O)c(O)c4c3C(=O)OC(C2OC(=O)c2cc(O)c(O)c(O)c2-c2c1cc(O)c(O)c2O)C1OC(=O)C2C4=C(O)C(=O)C23Oc2cc(O)c4c(c2[C@H]13)O[C@H](c1ccc(O)c(O)c1)[C@@H](O)C4 (stereo partly drawn)
test target: UO-31 renal
limit operator: >
value: 100
//
molecule: COc1ccc(-c2nn(-c3cccc(Cl)c3)cc2-c2nc(N)[nH]c(=O)c2C#N)cc1
test target: UO-31 renal
limit operator: =
value: 47.8
//
molecule: Cc1ccc2[c](c1)[Sn]([c]1ccccc1)([c]1ccccc1)[c]1cc(C)ccc1N2C
test target: UO-31 renal
limit operator: >
value: 100
//
molecule: O=P1(Cc2ccccc2)N(Cc2ccccc2)[C@@H]2CCCC[C@H]2N1Cc1ccccc1
test target: UO-31 renal
limit operator: =
value: 19.7
//
molecule: CCCn1cnc2c(SCc3ccc(Cl)cc3)nc(N)nc21
test target: UO-31 renal
limit operator: >
value: 100
//
molecule: CN(C)CCCNc1ccc2ncn3c4ccc(O)cc4c(=O)c1c23
test target: UO-31 renal
limit operator: =
value: 11.4
//
molecule: c1ccc2c(c1)Nc1cccc3c1c-2nc1ccccc13
test target: UO-31 renal
limit operator: =
value: 2.83
//
molecule: C/C=C\C(CC(=O)NCC(=O)c1c[nH]c2ccccc12)CC(=O)OC (stereo not drawn)
test target: UO-31 renal
limit operator: >
value: 100
//
molecule: CCOC(=O)C(NC(=O)c1ccccc1)(N1CCN(c2cc3c(cc2F)c(=O)c(C(=O)O)cn3C2CC2)CC1)C(F)(F)F (stereo not drawn)
test target: UO-31 renal
limit operator: =
value: 63.3
//
molecule: COc1cc(OC)c2sc(-c3ccc(-n4cncc4-c4cc(OC)c(OC)c(OC)c4)cc3)nc2c1
test target: UO-31 renal
limit operator: >
value: 100
//
molecule: CS(=O)(=O)N1CC(CCl)c2ccc(O)cc21 (stereo not drawn)
test target: UO-31 renal
limit operator: =
value: 5.79
//
molecule: CCC1CC(O)c2c(O)c3c(c(O)c2C1O)C(=O)c1cccc(O)c1C3=O (stereo not drawn) (tested in a mixture with another compound)
test target: UO-31 renal
limit operator: =
value: 0.038
//
molecule: O=C1C=CC(=CC=C2C=CN(CCCCCCCCCCC(=O)NCCCCCCCCCCCC(=O)O)C=C2)C=C1
test target: UO-31 renal
limit operator: >
value: 100
//
molecule: COc1cc(/C=C2\CCC/C(=C\c3ccc(OCC4CO4)c(OC)c3)C2=O)ccc1OCC1CO1 (stereo not drawn)
test target: UO-31 renal
limit operator: =
value: 7.94
//
molecule: CCC(=O)OCN(C)c1nc(N(C)COC(=O)CC)nc(N(C)COC(=O)CC)n1
test target: UO-31 renal
limit operator: >
value: 100
//
molecule: COc1ccc(-c2cc(-c3ccc(Nc4ccnc5cc(Cl)ccc45)cc3)nc(N3CCOCC3)n2)cc1
test target: UO-31 renal
limit operator: >
value: 100
//
molecule: Cc1[nH]n(-c2nc(O)c(-c3ccccc3)c(=O)[nH]2)c(=O)c1CCO
test target: UO-31 renal
limit operator: >
value: 100
//
molecule: N/C(=N\S(=O)(=O)c1ccc(-c2ncccc2C(F)(F)F)s1)Nc1ccc(Cl)cc1
test target: UO-31 renal
limit operator: =
value: 38.4
//
molecule: NC(CCc1ncc(C(=O)O)s1)C(=O)O (stereo not drawn)
test target: UO-31 renal
limit operator: >
value: 100
